- Test system: RPMI-8226 leukemia
- experiment_description: NCI-60 one-dose screen, 48 h (100 = growth as untreated, 0 = no growth, -100 = all killed)
- run_parameters: 10 µM unless noted
Compounds without any hit were thinned out: in the full panel of roughly 83,000, 20% have a hit. Activity calls are given as the source filed them. The calls were made as follows: active = growth percent below 10; inactive = the rest.
measured_metric: growth

compound	growth
CCOC(=O)CCC[P+](c1ccccc1)(c1ccccc1)c1ccccc1	41.9% (inactive)
O=C(NNc1ccc(-c2ccccc2)nn1)c1ccccc1	102% (inactive)
CCn1cc(-c2[nH]c(=S)ncc2-c2ccc(Cl)cc2)c(-c2ccc(Br)cc2)n1	77.6% (inactive)
COc1ccc(-c2ccc(NNC(=O)c3ccc(F)cc3)nn2)cc1OC	70.7% (inactive)
COCCCNc1nc(NC(=O)c2cc(Br)cc(C(F)(F)F)c2)cc(-c2cccnc2)n1	65.6% (inactive)
COC(=O)[C@@H](NC(=O)NC(=O)NC(=O)CI)C(C)C	74.5% (inactive)

Note to self: growth recorded for N#CCCc1c[nH]c2ccccc12 was 92.7% (inactive)
